# Measurement Target: Melanocortin receptor 5 (Homo sapiens)
# Assay Protocol: Increase in intracellular cAMP in CHO cells expressing human melanocortin receptor 5.
# Format: functional, cell-based
Peptide text beside a SMILES is read from it.
Consider the following molecules; for each one, report its EC50.

The observed EC50 for N=C(N)NCCC[C@@H]1NC(=O)[C@@H](Cc2ccc3ccccc3c2)NC(=O)CCC(=O)NCCCC[C@@H](C(N)=O)NC(=O)[C@H](Cc2c[nH]c3ccccc23)NC1=O when tested with Melanocortin receptor 5 (Homo sapiens) stands at 530 nM

Short answer on Melanocortin receptor 5 (Homo sapiens) for N=C(N)NCCC[C@@H]1NC(=O)[C@@H](Cc2ccc3ccccc3c2)NC(=O)[C@H](Cc2c[nH]cn2)NC(=O)CCC(=O)NC[C@@H](C(N)=O)NC(=O)[C@H](Cc2c[nH]c3ccccc23)NC1=O , EC50: 210 nM

EC50 on Melanocortin receptor 5 (Homo sapiens) for CC(=O)N[C@H]1CSSC[C@@H](C(=O)N2CCC[C@H]2C(=O)N2CCC[C@H]2C(=O)N[C@@H](CCCCN)C(=O)N[C@@H](CC(=O)O)C(N)=O)NC(=O)CNC(=O)[C@H](Cc2c[nH]c3ccccc23)NC(=O)[C@H](CCCNC(=N)N)NC(=O)[C@@H](Cc2ccc3ccccc3c2)NC(=O)[C@H](Cc2c[nH]cn2)NC(=O)[C@H](CCC(=O)O)NC1=O (HELM PEPTIDE1{[ac].C.E.H.[O=C([C@@H](Cc1ccc2ccccc2c1)N[*:1])[*:2]].R.W.G.C.P.P.K.D.[am]}$PEPTIDE1,PEPTIDE1,2:R3-9:R3$$$V2.0) is 42 nM

Bench note, Melanocortin receptor 5 (Homo sapiens): N=C(N)NCCC[C@@H]1NC(=O)[C@@H](Cc2ccc3ccccc3c2)NC(=O)[C@@H](N)CC(=O)NCCCC[C@@H](C(N)=O)NC(=O)[C@H](Cc2c[nH]c3ccccc23)NC1=O , EC50 reads 200 nM

====

Assay Endpoint: Ki (nM)
State the answer as a number, implicitly in nM.

Tested system Melanocortin receptor 3 (Homo sapiens, UniProt P41968); Ki recorded for N=C(N)NCCC[C@@H]1NC(=O)[C@@H](Cc2ccc3ccccc3c2)NC(=O)[C@H](Cc2c[nH]cn2)NC(=O)CCC(=O)NC[C@@H](C(N)=O)NC(=O)[C@H](Cc2c[nH]c3ccccc23)NC1=O was 29

Simply: N=C(N)NCCC[C@@H]1NC(=O)[C@@H](Cc2ccc3ccccc3c2)NC(=O)[C@@H](N)CC(=O)NCCCC[C@@H](C(N)=O)NC(=O)[C@H](Cc2c[nH]c3ccccc23)NC1=O , Melanocortin receptor 3 (Homo sapiens, UniProt P41968), Ki = 420

Bench note, Melanocortin receptor 3 (Homo sapiens, UniProt P41968): entry N=C(N)NCCC[C@@H]1NC(=O)[C@@H](Cc2ccc3ccccc3c2)NC(=O)[C@H](Cc2c[nH]cn2)NC(=O)CCC(=O)NCCCC[C@@H](C(N)=O)NC(=O)[C@H](Cc2c[nH]c3ccccc23)NC1=O , its Ki = 47

====

Exercise: state measured Ki for each of the molecules provided.
Peptide text beside a SMILES is read from it.
Supply the numeric figure in nM, leaving out any unit text.

Reported Ki (Melanocortin receptor 4 (Homo sapiens)) for entry CC(=O)N[C@H]1CSSC[C@@H](C(=O)N2CCC[C@H]2C(=O)N2CCC[C@H]2C(=O)N[C@@H](CCCCN)C(=O)N[C@@H](CC(=O)O)C(N)=O)NC(=O)CNC(=O)[C@H](Cc2c[nH]c3ccccc23)NC(=O)[C@H](CCCN=C(N)N)NC(=O)[C@@H](Cc2ccc(Cl)c(Cl)c2)NC(=O)[C@H](Cc2c[nH]cn2)NC(=O)[C@H](CCC(=O)O)NC1=O is 2.2

Response field Ki (Melanocortin receptor 4 (Homo sapiens)) for item N=C(N)NCCC[C@@H]1NC(=O)[C@@H](Cc2ccc3ccccc3c2)NC(=O)[C@@H](N)CC(=O)NCCCC[C@@H](C(N)=O)NC(=O)[C@H](Cc2c[nH]c3ccccc23)NC1=O : 4

Kindly note: Melanocortin receptor 4 (Homo sapiens), CCC1CC(=O)N[C@H](Cc2ccc3ccccc3c2)C(=O)N[C@@H](CCCN=C(N)N)C(=O)N[C@@H](Cc2c[nH]c3ccccc23)C(=O)N[C@H](C(N)=O)CCCCNC1=O (stereo in doubt; 17) , Ki value reported: 0.58

Result for N=C(N)NCCC[C@@H]1NC(=O)[C@@H](Cc2ccc3ccccc3c2)NC(=O)CCC(=O)NCC[C@@H](C(N)=O)NC(=O)[C@H](Cc2c[nH]c3ccccc23)NC1=O , tested on Melanocortin receptor 4 (Homo sapiens), Ki: 58

# lookup: N=C(N)NCCC[C@@H]1NC(=O)[C@@H](Cc2ccc3ccccc3c2)NC(=O)CCC(=O)NCCC[C@@H](C(N)=O)NC(=O)[C@H](Cc2c[nH]c3ccccc23)NC1=O on Melanocortin receptor 4 (Homo sapiens), Ki = 0.37

For the molecule CC(=O)N[C@H]1CSSC[C@@H](C(=O)N2CCC[C@H]2C(=O)N2CCC[C@H]2C(=O)N[C@@H](CCCCN)C(=O)N[C@@H](CC(=O)O)C(N)=O)NC(=O)CNC(=O)[C@H](Cc2c[nH]c3ccccc23)NC(=O)[C@H](CCCNC(=N)N)NC(=O)[C@@H](Cc2ccc3ccccc3c2)NC(=O)[C@H](Cc2c[nH]cn2)NC(=O)[C@H](CCC(=O)O)NC1=O (HELM PEPTIDE1{[ac].C.E.H.[O=C([C@@H](Cc1ccc2ccccc2c1)N[*:1])[*:2]].R.W.G.C.P.P.K.D.[am]}$PEPTIDE1,PEPTIDE1,2:R3-9:R3$$$V2.0) , the measured Ki on Melanocortin receptor 4 (Homo sapiens) was 1.5

The molecule N=C(N)NCCC[C@H]1NC(=O)[C@@H](Cc2ccc3ccccc3c2)NC(=O)CCC(=O)NCCCC[C@H](C(N)=O)NC(=O)[C@@H](Cc2c[nH]c3ccccc23)NC1=O on Melanocortin receptor 4 (Homo sapiens): Ki was 3700

Ki of N=C(N)NCCC[C@@H]1NC(=O)[C@@H](Cc2ccc3ccccc3c2)NCC(=O)CC[C@@H](C(N)=O)NC(=O)[C@H](Cc2c[nH]c3ccccc23)NC1=O , assay on Melanocortin receptor 4 (Homo sapiens), is 960

====

Hi! I'm sharing some pKi results obtained with Melanocortin receptor 4 (Homo sapiens, UniProt P32245).
Sequence (P32245 whole entry): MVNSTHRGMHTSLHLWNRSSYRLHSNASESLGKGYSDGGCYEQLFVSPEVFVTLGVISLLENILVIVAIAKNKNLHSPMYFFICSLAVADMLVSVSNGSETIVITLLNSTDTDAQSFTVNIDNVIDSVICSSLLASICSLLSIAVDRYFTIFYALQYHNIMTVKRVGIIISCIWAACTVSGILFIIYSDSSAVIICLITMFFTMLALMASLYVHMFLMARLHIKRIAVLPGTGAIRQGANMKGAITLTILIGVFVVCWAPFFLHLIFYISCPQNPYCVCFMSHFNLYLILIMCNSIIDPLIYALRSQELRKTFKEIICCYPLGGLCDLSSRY
pKi field: float, defined as -log10 of concentration (mol/L).

Briefly, pKi measured for N=C(N)NCCC[C@@H]1NC(=O)[C@@H](Cc2ccc3ccccc3c2)NC(=O)CCC(=O)NCCCC[C@H](C(N)=O)NC(=O)[C@H](Cc2c[nH]c3ccccc23)NC1=O : 5.42

pKi for N=C(N)NCCC[C@@H]1NC(=O)[C@@H](Cc2ccc3ccccc3c2)NC(=O)CCC(=O)NC[C@@H](C(N)=O)NC(=O)[C@H](Cc2c[nH]c3ccccc23)NC1=O is 6.96

response.value for N=C(N)NCCC[C@@H]1NC(=O)[C@@H](Cc2ccc3ccccc3c2)NC(=O)[C@H](Cc2cnc[nH]2)NC(=O)[C@@H](N)CC(=O)NCCCC[C@@H](C(N)=O)NC(=O)[C@H](Cc2c[nH]c3ccccc23)NC1=O (field: pKi) = 8.80

====

Assignment: determine reported EC50 for the given compounds.
# Measurement Target: Melanocortin receptor 5 (Homo sapiens, UniProt P33032)
# Sequence (P33032 whole entry): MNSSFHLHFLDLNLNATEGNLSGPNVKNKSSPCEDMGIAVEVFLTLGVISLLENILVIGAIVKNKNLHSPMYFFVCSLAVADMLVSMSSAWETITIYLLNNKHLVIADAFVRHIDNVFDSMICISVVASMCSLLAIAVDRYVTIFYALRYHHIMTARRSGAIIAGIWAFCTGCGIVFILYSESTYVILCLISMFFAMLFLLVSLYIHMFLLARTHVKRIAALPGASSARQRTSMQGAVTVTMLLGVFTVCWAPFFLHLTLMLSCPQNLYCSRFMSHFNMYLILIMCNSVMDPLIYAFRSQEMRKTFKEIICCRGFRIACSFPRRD
# Assay Protocol: Increase in intracellular cAMP in CHO cells expressing human melanocortin receptor 5.
# Format: functional, cell-based

EC50 reading for N=C(N)NCCC[C@@H]1NC(=O)[C@@H](Cc2ccc3ccccc3c2)NC(=O)[C@H](Cc2c[nH]cn2)NC(=O)CCC(=O)NCCCC[C@@H](C(N)=O)NC(=O)[C@H](Cc2c[nH]c3ccccc23)NC1=O : 170 nM

Noted for N=C(N)NCCC[C@@H]1NC(=O)[C@@H](Cc2ccc3ccccc3c2)NC(=O)CCC(=O)NCCC[C@@H](C(N)=O)NC(=O)[C@H](Cc2c[nH]c3ccccc23)NC1=O : its EC50 reads 300 nM

For this compound ( CC(=O)N[C@H]1CSSC[C@@H](C(=O)N2CCC[C@H]2C(=O)N2CCC[C@H]2C(=O)N[C@@H](CCCCN)C(=O)N[C@@H](CC(=O)O)C(N)=O)NC(=O)CNC(=O)[C@H](Cc2c[nH]c3ccccc23)NC(=O)[C@H](CCCN=C(N)N)NC(=O)[C@@H](Cc2ccc(Cl)c(Cl)c2)NC(=O)[C@H](Cc2c[nH]cn2)NC(=O)[C@H](CCC(=O)O)NC1=O ), measured EC50 is 73 nM

Notebook: N=C(N)NCCC[C@@H]1NC(=O)[C@@H](Cc2ccc3ccccc3c2)NC(=O)[C@H](Cc2cnc[nH]2)NC(=O)[C@@H](N)CC(=O)NCCCC[C@@H](C(N)=O)NC(=O)[C@H](Cc2c[nH]c3ccccc23)NC1=O , EC50 read as 18 nM

The reported value for CC(=O)N[C@H]1CC(=O)NCCCC[C@@H](C(N)=O)NC(=O)[C@H](Cc2c[nH]c3ccccc23)NC(=O)[C@H](CCCNC(=N)N)NC(=O)[C@@H](Cc2ccc3ccccc3c2)NC1=O in terms of EC50 is 1000 nM
